TGT: Muscarinic acetylcholine receptor M4 (Homo sapiens)
Sequence (P08173 whole entry): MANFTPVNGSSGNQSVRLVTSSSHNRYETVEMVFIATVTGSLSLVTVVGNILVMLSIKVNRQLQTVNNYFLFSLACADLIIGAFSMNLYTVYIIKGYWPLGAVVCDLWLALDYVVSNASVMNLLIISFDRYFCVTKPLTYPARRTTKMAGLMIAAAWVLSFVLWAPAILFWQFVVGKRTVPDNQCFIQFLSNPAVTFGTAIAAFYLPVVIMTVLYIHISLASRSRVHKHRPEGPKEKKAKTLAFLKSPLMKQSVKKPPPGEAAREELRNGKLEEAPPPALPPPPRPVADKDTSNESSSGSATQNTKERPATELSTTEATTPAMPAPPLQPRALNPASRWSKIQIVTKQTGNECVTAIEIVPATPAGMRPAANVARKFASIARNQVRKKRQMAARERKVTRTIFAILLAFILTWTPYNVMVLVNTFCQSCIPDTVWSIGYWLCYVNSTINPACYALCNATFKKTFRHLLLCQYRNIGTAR
TEST SUMMARY: Positive allosteric modulation of human M4 AchR
ASSAY READOUT: EC50 (nM)
Numbers only, in nM.

Query: State the recorded EC50 for this entry: Cc1cc(OCc2ccncc2)nc2sc(C(=O)NCc3cccc(F)c3F)c(N)c12
Response: 95

---

TGT: Muscarinic acetylcholine receptor M4 (Rattus norvegicus, UniProt P08485)
Sequence (P08485 whole entry): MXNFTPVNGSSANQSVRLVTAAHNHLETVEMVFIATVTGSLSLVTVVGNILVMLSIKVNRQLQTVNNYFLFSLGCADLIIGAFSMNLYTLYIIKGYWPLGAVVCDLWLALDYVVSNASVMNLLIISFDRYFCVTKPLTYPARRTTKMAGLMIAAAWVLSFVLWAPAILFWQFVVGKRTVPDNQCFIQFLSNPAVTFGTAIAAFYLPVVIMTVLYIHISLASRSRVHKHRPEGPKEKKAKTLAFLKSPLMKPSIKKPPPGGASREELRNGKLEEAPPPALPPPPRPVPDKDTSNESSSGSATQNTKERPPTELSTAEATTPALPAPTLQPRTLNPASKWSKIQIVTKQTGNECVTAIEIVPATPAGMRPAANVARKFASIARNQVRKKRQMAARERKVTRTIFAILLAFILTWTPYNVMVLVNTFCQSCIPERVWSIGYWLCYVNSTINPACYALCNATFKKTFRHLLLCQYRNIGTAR
TEST SUMMARY: Positive allosteric modulation of rat M4 AchR
ASSAY READOUT: pEC50
Numbers only, as −log10 of the molar value.

Query: State the recorded pEC50 for this entry: Cc1cc(OCc2ccncc2)nc2sc(C(=O)NCc3cccc(F)c3F)c(N)c12
Response: 5.62
